# credit: patent US10253076B2

STUDY_SYSTEM: HLA-A*02:01 (Homo sapiens, UniProt P04439, D140Y/D185E/D98H/E176V/E277Q/G131W/G231S/I119V/I121R/I166T/I218V/L300P/L318F/N151K/N90K/P208A/P217A/Q86G/Q94H/R138H/R169H/T345S)
PROCEDURE_SUMMARY: MHC binding assay (UV-ligand exchange, beta2m ELISA, peptide exchange yield)
CONDITION: binding of HLA-class I restricted peptides to HLA-A*02:01, ranged by peptide exchange yield (UV-ligand exchange, β2m ELISA)
READOUT_NAME: Peptide exchange

277 (LLPPLESLATV; listed as Homo sapiens) [compound 277] | ″++″ (≥20% = ++)
491 (GLNDRSDAV; listed as Homo sapiens) [compound 491] | ″++″ (≥20% = ++)
188 (GLFPVTPEAV; listed as Homo sapiens) [compound 188] | ″+++″ (≥50% = +++)
609 (ALWKQLLEL; listed as Homo sapiens) [compound 609] | ″+++″ (≥50% = +++)
